- Tested Target: IgE-Tb / soluble IgE receptor FcεRIα with a Y131A mutation (Homo sapiens, UniProt P01854, N146Q/N252Q)
- Construct: fused on or other part: Terbium chelate (LanthaScreen amine-reactive) on IgE-Fc; Alexa Fluor 488 hydrazide on the oxidised glycans of sFcεRIα; Both are labels and no part of the key
- Sequence (P01854 104-427 N146Q/N252Q): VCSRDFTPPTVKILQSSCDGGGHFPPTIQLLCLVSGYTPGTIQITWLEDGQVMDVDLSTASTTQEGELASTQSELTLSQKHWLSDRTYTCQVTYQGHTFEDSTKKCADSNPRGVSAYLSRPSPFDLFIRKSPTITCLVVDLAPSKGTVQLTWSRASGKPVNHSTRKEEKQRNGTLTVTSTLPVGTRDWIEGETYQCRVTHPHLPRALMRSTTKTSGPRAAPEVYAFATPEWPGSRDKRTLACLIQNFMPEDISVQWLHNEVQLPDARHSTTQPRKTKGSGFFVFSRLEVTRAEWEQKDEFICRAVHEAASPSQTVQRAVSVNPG
- Sequence (P12319 26-201 Y156A partner): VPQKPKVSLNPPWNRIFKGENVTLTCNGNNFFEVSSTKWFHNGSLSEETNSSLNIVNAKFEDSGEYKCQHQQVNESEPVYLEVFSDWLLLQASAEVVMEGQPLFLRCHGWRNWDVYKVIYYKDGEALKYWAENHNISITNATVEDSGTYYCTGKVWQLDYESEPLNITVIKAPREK
- Experiment: in vitro FRET assay: binding of IgE-Tb to receptor FcεRIα-Y131A-AF488 and its inhibition by compounds
- Experimental Parameters: 5 nM IgE-Tb, 25 nM FcεRIα-Y131A-AF488, 2 hours at room temperature; read-out: FRET IC50 range
Where a name gives a salt, the structure may show the parent alone.

{"Compound": "CC(C)(F)CNS(=O)(=O)c1c2c(cc3cnc(C4CC4)cc13)CC(Nc1cncc3nccn13)C2 (centres unmarked)", "IC50": "10 to 50 nM"}
{"Compound": "CCNC(=O)NC1CCc2cc3cnc(C4CC4)cc3c(S(=O)(=O)NCC(C)C)c21 (centres unmarked)", "IC50": "100 to 2000 nM"}
{"Compound": "CCNc1c(NC2Cc3cc4cnc(C5CC5)cc4c(S(=O)(=O)NCC(C)C)c3C2)c(=O)c1=O (centres unmarked)", "IC50": "10 to 50 nM"}
{"Compound": "CC(C)(F)CNS(=O)(=O)c1c2c(cc3cnc(C4CC4)cc13)CC(NC(=O)Cc1ccccc1)C2 (centres unmarked)", "IC50": "50 to 100 nM"}
{"Compound": "CC(C)CNS(=O)(=O)c1c2c(cc3cnc(C4CC4)cc13)CNC2", "IC50": "100 to 2000 nM"}
{"Compound": "Cc1nnc(-n2ccc(N[C@@H]3Cc4cc5cnc(C6CC6)cc5c(S(=O)(=O)NCC(C)(C)F)c4C3)cc2=O)o1", "IC50": "10 to 50 nM"}
{"Compound": "CC(C)(F)CNS(=O)(=O)c1c2c(cc3cnc(C4CC4)cc13)C[C@@H](Nc1cnc(Cl)cc1-c1nnn[nH]1)C2", "IC50": "100 to 2000 nM"}
{"Compound": "CC(C)(F)CNS(=O)(=O)c1c2c(cc3cnc(C4CC4)cc13)CC(CO)(Nc1nncn1-c1cccnc1)C2 (centres unmarked)", "IC50": "100 to 2000 nM"}
{"Compound": "Cc1nnc(NC2Cc3cc4cnc(C5CC5)cc4c(S(=O)(=O)NCC(C)(C)F)c3C2)o1 (centres unmarked)", "IC50": "100 to 2000 nM"}
{"Compound": "CC(C)(F)CNS(=O)(=O)c1c2c(cc3cnc(C4CC4)cc13)CC(Nc1cncc3[nH]ncc13)C2 (centres unmarked) [Example 83, formate salt]", "IC50": "10 to 50 nM"}
{"Compound": "COc1ccc2c(C(=O)N[C@@H]3Cc4cc5cnc(C6CC6)cc5c(S(=O)(=O)NCC(C)(C)F)c4C3)c[nH]c2c1", "IC50": "10 to 50 nM"}
{"Compound": "CC(C)(F)CNS(=O)(=O)c1c2c(cc3cnc(C4CC4)cc13)CN(C(=O)Cc1cccnc1)C2", "IC50": "100 to 2000 nM"}
{"Compound": "CC(C)(F)CNS(=O)(=O)c1c2c(cc3cnc(C4CC4)cc13)CC(NC1=CS(=O)(=O)CC1)C2 (centres unmarked)", "IC50": "100 to 2000 nM"}
{"Compound": "Cc1nnc(-c2ccc(N[C@@H]3Cc4cc5cnc(C6CC6)cc5c(S(=O)(=O)NCC(C)(C)F)c4C3)cc2)o1", "IC50": "10 to 50 nM"}
{"Compound": "NC(=O)c1ccc(N[C@@H]2Cc3cc4cnc(C5CC5)cc4c(S(=O)(=O)NC4CC(F)(F)C4)c3C2)nn1", "IC50": "10 to 50 nM"}
{"Compound": "CC(C)(C)OC(=O)c1ccc(N[C@@H]2Cc3cc4cnc(C5CC5)cc4c(S(=O)(=O)NC4CC(F)(F)C4)c3C2)cn1", "IC50": "10 to 50 nM"}
{"Compound": "Cc1cc(Nc2nncn2C2Cc3cc4cnc(C5CC5)cc4c(S(=O)(=O)NCC(C)(C)F)c3C2)n(C)n1 (centres unmarked)", "IC50": "100 to 2000 nM"}
{"Compound": "CC(C)CNS(=O)(=O)c1c2c(cc3cnc(C4CC4)cc13)CC(C(=O)NCC(C)(C)C)C2 (centres unmarked)", "IC50": "10 to 50 nM"}
{"Compound": "CC(C)(F)CNS(=O)(=O)c1c2c(cc3cnc(C4CC4)cc13)CC(Nc1ccc(N3CC(C)(O)C3)nc1)C2 (centres unmarked)", "IC50": "100 to 2000 nM"}
{"Compound": "CC(C)(F)CNS(=O)(=O)c1c2c(cc3cnc(C4CC4)cc13)C[C@@H](Nc1ccc(C(F)F)nc1)C2", "IC50": "10 to 50 nM"}
{"Compound": "O=c1cc(C2Cc3cc4cnc(C5CC5)cc4c(S(=O)(=O)NC4CC(F)(F)C4)c3C2)[nH]n1-c1cccnc1 (centres unmarked)", "IC50": "100 to 2000 nM"}
{"Compound": "CC(C)(F)CNS(=O)(=O)c1c2c(cc3cnc(C4CC4)cc13)C[C@@H](NC1=CC(=O)COC1)C2", "IC50": "100 to 2000 nM"}
{"Compound": "CC(C)(F)CNS(=O)(=O)c1c2c(cc3cnc(C4CC4)cc13)CC(c1nc3ccncc3[nH]1)C2 (centres unmarked)", "IC50": "50 to 100 nM"}
{"Compound": "Cn1cc2c(NC3Cc4cc5cnc(C6CC6)cc5c(S(=O)(=O)NCC5(O)COC5)c4C3)cncc2n1 (centres unmarked)", "IC50": "10 to 50 nM"}
{"Compound": "O=C(O)c1ccc(NC2Cc3cc4cnc(C5CC5)cc4c(S(=O)(=O)NC4CC(F)(F)C4)c3C2)cn1 (centres unmarked)", "IC50": "100 to 2000 nM"}
{"Compound": "CC(C)(F)CNS(=O)(=O)c1c2c(cc3cnc(C4CC4)cc13)CC(Nc1cccnc1)C2 (centres unmarked)", "IC50": "10 to 50 nM"}
{"Compound": "CCOC(=O)c1ncn([C@H]2Cc3cc4cnc(C5CC5)cc4c(S(=O)(=O)NCC(C)(C)F)c3C2)c1N", "IC50": "100 to 2000 nM"}
{"Compound": "CC(O)CNS(=O)(=O)c1c2c(cc3cnc(C4CC4)cc13)CCC2 (centres unmarked)", "IC50": "100 to 2000 nM"}
{"Compound": "CC(C)CNS(=O)(=O)c1c2c(cc3cnc(C4CC4)cc13)OCO2", "IC50": "100 to 2000 nM"}
